- Method summary: clinical
- Condition: male, human, in vivo, 300 mg
Outcome measure: Tmax

# Structure smiles, Outcome measure, Endpoint value
measured = [
    ("CNC(=O)c1ccc2cc([C@@]3(O)CCn4cncc43)ccc2c1", "Tmax", "3 h"),
]

====

- Method summary: clinical
- Condition: male, human, in vivo, 400 mg
Outcome measure: Tmax (h)

# Structure smiles, Outcome measure, Unit tag, Endpoint value
records = [
    ("CNC(=O)c1ccc2cc([C@@]3(O)CCn4cncc43)ccc2c1", "Tmax", "h", 2.97),
]

====

- Method summary: clinical
- Condition: male, human, in vivo, 300 mg, C max
Outcome measure: Cmax (ng/mL)

# Compound, Outcome measure, Unit tag, Endpoint value
records = [
    ("CNC(=O)c1ccc2cc([C@@]3(O)CCn4cncc43)ccc2c1 [Orteronel]", "Cmax", "ng/mL", 3100),
]

Source: paper PMC4305367
